Target: c-Met (cytoplasmic domain) (Homo sapiens, UniProt P08581)
Construct: 10 ng/mL c-Met (cytoplasmic domain, Invitrogen Corporation #PV3143); purchased Invitrogen Corporation PV3143
Sequence (P08581 956-1390 limits assumed): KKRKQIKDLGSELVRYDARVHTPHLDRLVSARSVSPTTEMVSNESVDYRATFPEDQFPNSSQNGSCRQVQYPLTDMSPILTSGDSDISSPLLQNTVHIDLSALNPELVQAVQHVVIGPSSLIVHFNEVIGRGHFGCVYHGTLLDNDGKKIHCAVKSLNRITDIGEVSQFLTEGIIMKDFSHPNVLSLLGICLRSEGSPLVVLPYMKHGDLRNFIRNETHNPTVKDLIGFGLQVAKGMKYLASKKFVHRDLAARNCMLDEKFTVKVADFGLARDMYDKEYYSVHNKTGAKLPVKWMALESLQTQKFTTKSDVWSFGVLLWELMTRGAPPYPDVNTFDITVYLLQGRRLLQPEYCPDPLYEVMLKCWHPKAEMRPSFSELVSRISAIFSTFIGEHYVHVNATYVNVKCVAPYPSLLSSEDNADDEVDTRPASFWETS
Assay Info: c-Met Kinase Assay (same methods as for ALK, with modifications)
Format: biochemical
Condition Summary: c-Met kinase inhibition, 1 μM ATP (Km level); read-out: cMet Activity
pIC50: −log10 of the molar value.
Each entry below carries its reported pIC50.

# Compound, Value Reported
rows = [
    ("CNC(=O)c1ccccc1Nc1nc(Nc2ccc3c(c2)CCCC(=O)N3C)ncc1Br", "> 7.00"),
]

Ask | Sample CCN1CCc2cc(Nc3ncc(Cl)c(Nc4ccc(N5CCOCC5)cc4OC)n3)c(OC)cc2CC1=O — what was its pIC50?
Reply | < 5.00

Ask | Sample CC1(C)CCC(=O)Nc2ccc(Nc3ncc(Cl)c(N[C@@H]4CCCC[C@H]4NS(C)(=O)=O)n3)cc21 — what was its pIC50?
Reply | 5.00 to 6.00

Ask | Sample CS(=O)(=O)N1CCc2ccc(Nc3ncc(Cl)c(NC4C5C=CC(C5)C4C(N)=O)n3)cc2CC1 (stereo not shown) — what was its pIC50?
Reply | 6.00 to 7.00

Ask | Sample CNC(=O)c1ccccc1Nc1nc(Nc2ccc3c(c2)CCOCC3)ncc1Cl — what was its pIC50?
Reply | > 7.00

Ask | Sample CNC(=O)c1ccccc1Nc1nc(Nc2ccc3c(c2)C2CCC(C3)N2C(C)C)ncc1Cl (stereo not shown) — what was its pIC50?
Reply | > 7.00

Ask | Sample CNC(=O)c1ccccc1Nc1nc(Nc2ccc3c(c2)N(C)CCN(S(C)(=O)=O)C3)ncc1Cl — what was its pIC50?
Reply | > 7.00

Ask | Sample COc1cc2c(cc1Nc1ncc(Cl)c(Nc3ccc(N4CCOCC4)cc3OC)n1)N(C)CCN(S(C)(=O)=O)C2 — what was its pIC50?
Reply | < 5.00

Ask | Sample CNC(=O)c1ccccc1Nc1nc(Nc2ccc3c(c2)COCCN3C)ncc1Cl — what was its pIC50?
Reply | > 7.00

Ask | Sample CCN1CCc2cc(Nc3ncc(Cl)c(Nc4ccccc4C(=O)NC)n3)c(OC)cc2CC1 — what was its pIC50?
Reply | 5.00 to 6.00

Ask | Sample NC(=O)C1C2C=CC(C2)C1Nc1nc(Nc2ccc3c(c2)CCN(CC(O)C(F)(F)F)CC3)ncc1Cl (mixture of isomers) — what was its pIC50?
Reply | 6.00 to 7.00

Ask | Sample CCN1CCc2ccc(Nc3ncc([N+](=O)[O-])c(Nc4ccccc4C(=O)NC)n3)cc2CC1 — what was its pIC50?
Reply | 6.00 to 7.00

Ask | Sample CNC(=O)c1ccccc1Nc1nc(Nc2ccc3c(c2)CN(CCOC)CCN3C)ncc1Cl — what was its pIC50?
Reply | > 7.00

Ask | Sample CCN1CCc2ccc(Nc3ncc(Cl)c(N[C@@H]4CCCC[C@H]4NS(C)(=O)=O)n3)c(OC)c2CC1 — what was its pIC50?
Reply | < 5.00

Ask | Sample C#CCNC(=O)c1cccc(F)c1Nc1nc(Nc2ccc3c(c2)N(CC)C(=O)CN(C(=O)OCC)C3)ncc1Cl — what was its pIC50?
Reply | > 7.00

###

Target: baculovirus-expressed ALK (Homo sapiens, UniProt Q9UM73)
Construct: host or cells: baculovirus expression system
Sequence (Q9UM73 19-1620): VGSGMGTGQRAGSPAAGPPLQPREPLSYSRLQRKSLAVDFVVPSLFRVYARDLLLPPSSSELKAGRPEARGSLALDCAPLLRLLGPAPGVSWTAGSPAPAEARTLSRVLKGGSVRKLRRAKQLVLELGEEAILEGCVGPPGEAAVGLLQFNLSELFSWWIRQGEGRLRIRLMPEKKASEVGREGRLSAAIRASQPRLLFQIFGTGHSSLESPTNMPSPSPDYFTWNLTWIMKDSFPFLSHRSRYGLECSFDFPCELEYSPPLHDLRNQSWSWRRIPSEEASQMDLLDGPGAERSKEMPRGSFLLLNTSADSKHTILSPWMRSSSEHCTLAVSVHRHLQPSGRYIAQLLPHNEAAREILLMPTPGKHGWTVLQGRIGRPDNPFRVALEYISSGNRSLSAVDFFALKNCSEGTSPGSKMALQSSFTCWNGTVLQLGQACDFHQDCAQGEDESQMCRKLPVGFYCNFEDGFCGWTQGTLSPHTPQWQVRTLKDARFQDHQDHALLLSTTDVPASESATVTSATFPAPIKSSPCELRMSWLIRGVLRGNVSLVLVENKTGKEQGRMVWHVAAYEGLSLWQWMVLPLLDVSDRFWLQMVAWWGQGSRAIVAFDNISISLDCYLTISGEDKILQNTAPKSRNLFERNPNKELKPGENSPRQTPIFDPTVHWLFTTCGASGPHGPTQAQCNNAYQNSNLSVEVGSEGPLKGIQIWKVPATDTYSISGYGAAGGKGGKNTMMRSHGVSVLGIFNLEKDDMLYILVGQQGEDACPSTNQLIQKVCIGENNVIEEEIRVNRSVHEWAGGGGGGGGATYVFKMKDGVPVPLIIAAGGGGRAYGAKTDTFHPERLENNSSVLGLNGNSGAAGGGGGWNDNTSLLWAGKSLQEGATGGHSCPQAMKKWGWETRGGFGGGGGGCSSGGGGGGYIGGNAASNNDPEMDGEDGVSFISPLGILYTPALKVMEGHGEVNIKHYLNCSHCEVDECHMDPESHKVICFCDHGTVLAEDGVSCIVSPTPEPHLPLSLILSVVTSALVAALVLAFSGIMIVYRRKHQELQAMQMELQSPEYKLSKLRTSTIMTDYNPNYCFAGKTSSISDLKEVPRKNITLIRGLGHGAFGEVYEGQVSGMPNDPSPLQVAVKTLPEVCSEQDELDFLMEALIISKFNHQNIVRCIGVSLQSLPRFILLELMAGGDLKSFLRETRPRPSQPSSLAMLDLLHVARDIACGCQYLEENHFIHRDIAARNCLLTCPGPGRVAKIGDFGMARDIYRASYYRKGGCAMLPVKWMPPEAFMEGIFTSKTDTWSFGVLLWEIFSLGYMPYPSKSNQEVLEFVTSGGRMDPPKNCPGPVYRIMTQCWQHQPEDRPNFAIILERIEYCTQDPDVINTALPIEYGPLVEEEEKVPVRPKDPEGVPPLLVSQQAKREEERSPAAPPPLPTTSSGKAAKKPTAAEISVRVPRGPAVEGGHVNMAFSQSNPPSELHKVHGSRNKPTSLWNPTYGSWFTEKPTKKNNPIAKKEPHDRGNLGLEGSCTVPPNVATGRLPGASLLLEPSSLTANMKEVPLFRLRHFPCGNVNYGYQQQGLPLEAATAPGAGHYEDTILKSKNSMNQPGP
Assay Info: ALK Kinase Assay (ELISA-type, time-resolved fluorescence)
Type: biochemical
Condition Summary: ALK kinase inhibition, 1 μM ATP; read-out: ALK Activity
pIC50: −log10 of the molar value.
Each entry below carries its reported pIC50.

Ask | Sample CC(C)[C@@H](Nc1nc(Nc2ccc3c(c2)CCOC(=O)N3C)ncc1Cl)C(N)=O — what was its pIC50?
Reply | 5.00 to 6.00

Ask | Sample C#CCNC(=O)c1cc(F)cc(F)c1Nc1nc(Nc2ccc3c(c2)NC(=O)CCC3)ncc1Cl — what was its pIC50?
Reply | 5.00 to 6.00

Ask | Sample CCN1CCN(CC(=O)OCCOC)C(=O)c2ccc(Nc3ncc(Cl)c(Nc4ccccc4C(=O)NC)n3)cc21 — what was its pIC50?
Reply | > 7.00

Ask | Sample Cc1noc(-c2cccc(F)c2Nc2nc(Nc3ccc4c(c3)CCOC(=O)N4C)ncc2Cl)n1 — what was its pIC50?
Reply | 5.00 to 6.00

Ask | Sample CNC(=O)c1ccsc1Nc1nc(Nc2ccc3c(c2)NC(=O)CCC3(C)C)ncc1Cl — what was its pIC50?
Reply | 5.00 to 6.00

Ask | Sample CCN1C(=O)CCC(C)(C)c2ccc(Nc3ncc(Cl)c(Nc4ccsc4C(=O)NC)n3)cc21 — what was its pIC50?
Reply | 5.00 to 6.00

Ask | Sample CNC(=O)c1cccc(F)c1Nc1nc(Nc2ccc3c(c2)N(C(C)C)C(=O)CCC3(C)C)ncc1Cl — what was its pIC50?
Reply | > 7.00

Ask | Sample COCCN1C(=O)CCC(C)(C)c2ccc(Nc3ncc(Cl)c(Nc4ccccc4OCC#N)n3)cc21 — what was its pIC50?
Reply | > 7.00

###

Target: c-Met (cytoplasmic domain) (Homo sapiens, UniProt P08581)
Construct: 10 ng/mL c-Met (cytoplasmic domain, Invitrogen Corporation #PV3143); purchased Invitrogen Corporation PV3143
Assay Info: c-Met Kinase Assay (same methods as for ALK, with modifications)
Assay type: biochemical
Condition Summary: 1 μM ATP (Km level); read-out: cMet Activity (c-Met Kinase Inhibition, IC50)
pIC50: −log10 of the molar value.
Measured Attribute: pIC50

The examples below pair each entry with its known result.
# Compound, pIC50
records = [
    ("COc1c(Nc2ncc(Cl)c(Nc3ccccc3S(=O)(=O)N3CC[C@H](O)C3)n2)ccc2c1CCCC(NCCO)C2 (stereo partly shown)", "5.00 to 6.00"),
    ("CCN1CCc2ccc(Nc3ncc(Cl)c(Nc4cccc(OCC#N)c4)n3)cc2CC1", "6.00 to 7.00"),
    ("CN1C(=O)CCCc2cc(Nc3ncc(Cl)c(Nc4cccc5c4ncn5C)n3)ccc21", "6.00 to 7.00"),
]

Ask | Sample CCN1CCN(CC)c2cc(Nc3ncc(Cl)c(N[C@H]4[C@@H]5CC[C@@H](C5)[C@H]4C(N)=O)n3)ccc2C1 — what was its pIC50?
Reply | 5.00 to 6.00

###

Each entry below carries its reported pIC50.
Target: c-Met (cytoplasmic domain) (Homo sapiens, UniProt P08581)
Construct: 10 ng/mL c-Met (cytoplasmic domain, Invitrogen Corporation #PV3143); purchased Invitrogen Corporation PV3143
Assay Info: c-Met Kinase Assay (same methods as for ALK, with modifications)
Format: biochemical
Condition Summary: c-Met kinase inhibition, 1 μM ATP; read-out: cMet Activity
pIC50: −log10 of the molar value.

The examples below pair each entry with its known result.
# Molecule, pIC50
measured = [
    ("CNC(=O)c1c(Cl)sc(Cl)c1Nc1nc(Nc2ccc3c(c2)CCOC(=O)N3C)ncc1Cl [Example 1774]", "6.00 to 7.00"),
    ("CNC(=O)c1cccc(Cl)c1Nc1nc(Nc2ccc3c(c2)CN(C)C(=O)CC3)ncc1Cl [Example 1805]", "6.00 to 7.00"),
    ("CNC(=O)c1ccccc1Nc1nc(Nc2cc3c(cc2OC)NC(=O)CCC3(C)C)ncc1Cl [Example 1671]", "5.00 to 6.00"),
    ("CNC(=O)c1cnn(C)c1Nc1nc(Nc2ccc3c(c2)CCOC(=O)N3C)ncc1Cl [Example 1776]", "6.00 to 7.00"),
]

Ask | What is its pIC50 for c-Met (cytoplasmic domain) (Homo sapiens, UniProt P08581)? Entry: COc1cc2c(cc1Nc1ncc(Cl)c(N[C@H]3[C@@H](C(N)=O)[C@@H]4C=C[C@H]3C4)n1)CCN(C[C@H](C)O)CC2 [Example 1558]
Reply | < 5.00

Ask | What is its pIC50 for c-Met (cytoplasmic domain) (Homo sapiens, UniProt P08581)? Entry: C=CCOc1cc(N(C)C)cc(F)c1Nc1nc(Nc2ccc3c(c2)CCN(CCOC)CC3)ncc1Cl [Example 1710]
Reply | 6.00 to 7.00

Ask | What is its pIC50 for c-Met (cytoplasmic domain) (Homo sapiens, UniProt P08581)? Entry: CC1(C)CCC(=O)Nc2cc(Nc3ncc(Cl)c(Nc4ccc(N5CCOCC5)cc4OCCC#N)n3)ccc21 [Example 1690]
Reply | 5.00 to 6.00

Ask | What is its pIC50 for c-Met (cytoplasmic domain) (Homo sapiens, UniProt P08581)? Entry: CN1C(=O)OCCc2cc(Nc3ncc(Cl)c(Nc4c(F)cccc4OCCO)n3)ccc21 [Example 1732]
Reply | > 7.00

Ask | What is its pIC50 for c-Met (cytoplasmic domain) (Homo sapiens, UniProt P08581)? Entry: COc1cc2c(cc1Nc1ncc(Cl)c(N[C@H]3[C@@H](C(N)=O)[C@@H]4C=C[C@H]3C4)n1)CCN(CC(C)O)CC2 (stereo partly drawn) [Example 1548]
Reply | < 5.00

Ask | What is its pIC50 for c-Met (cytoplasmic domain) (Homo sapiens, UniProt P08581)? Entry: C#CCNC(=O)c1cccc(F)c1Nc1nc(Nc2ccc3c(c2)N(CC)CCCC3(C)C)ncc1Cl [Example 1633]
Reply | 6.00 to 7.00

Ask | What is its pIC50 for c-Met (cytoplasmic domain) (Homo sapiens, UniProt P08581)? Entry: COc1cc(N2CCOCC2)ccc1Nc1nc(Nc2ccc3c(c2)N(CC(C)C)C(=O)CCC3(C)C)ncc1Cl [Example 1594]
Reply | < 5.00

Ask | What is its pIC50 for c-Met (cytoplasmic domain) (Homo sapiens, UniProt P08581)? Entry: CNC(=O)c1scc(C)c1Nc1nc(Nc2ccc3c(c2)CC(=O)N(C)CC3)ncc1Cl [Example 1816]
Reply | 6.00 to 7.00
